Below, each of the compounds is paired with its reported EC50 value.
molecular target: hTAAR1 (Homo sapiens, UniProt Q96RJ0); construct: expressed in transfected cells; host or cells: Expi293F; experiment: G protein (mini-Gs) recruitment luminescence complementation assay, agonist mode; type: cell-based; settings: TAAR1, G protein recruitment assay; read-out: pEC50 (converted)
Sequence (Q96RJ0 whole entry): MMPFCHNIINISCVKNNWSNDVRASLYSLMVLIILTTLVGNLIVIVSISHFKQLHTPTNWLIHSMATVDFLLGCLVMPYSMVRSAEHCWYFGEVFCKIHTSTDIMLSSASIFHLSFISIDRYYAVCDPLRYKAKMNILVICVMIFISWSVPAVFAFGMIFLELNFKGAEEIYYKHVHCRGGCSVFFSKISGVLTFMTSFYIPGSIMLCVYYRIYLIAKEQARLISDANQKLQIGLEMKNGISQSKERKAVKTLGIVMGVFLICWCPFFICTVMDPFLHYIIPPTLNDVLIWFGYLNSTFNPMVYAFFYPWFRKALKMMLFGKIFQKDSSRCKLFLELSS
MEASURED_QUANTITY: EC50 (µM)

COMPOUND: NCc1nsc2ccccc12 [Compound 23]
SYSTEM: hTAAR1 (Homo sapiens, UniProt Q96RJ0)
MEASURED_QUANTITY: EC50
OBSERVED_RESULT: 3.98

COMPOUND: CN[C@H]1CCc2ccccc2C1 [Compound 19]
SYSTEM: hTAAR1 (Homo sapiens, UniProt Q96RJ0)
MEASURED_QUANTITY: EC50
OBSERVED_RESULT: 3.98

COMPOUND: N[C@H]1COc2cccc(Br)c2C1 [Compound 20]
SYSTEM: hTAAR1 (Homo sapiens, UniProt Q96RJ0)
MEASURED_QUANTITY: EC50
OBSERVED_RESULT: 3.98

COMPOUND: NCc1noc2ccc(F)cc12 [Compound 13]
SYSTEM: hTAAR1 (Homo sapiens, UniProt Q96RJ0)
MEASURED_QUANTITY: EC50
OBSERVED_RESULT: 3.16

COMPOUND: CC1=C(c2ccco2)CNCC1 [Compound 65]
SYSTEM: hTAAR1 (Homo sapiens, UniProt Q96RJ0)
MEASURED_QUANTITY: EC50
OBSERVED_RESULT: 0.0251

COMPOUND: C[C@@H](N)c1cc2ccccc2o1 [Compound 16]
SYSTEM: hTAAR1 (Homo sapiens, UniProt Q96RJ0)
MEASURED_QUANTITY: EC50
OBSERVED_RESULT: 1.58
